Target: Serine/threonine-protein kinase pim-2 (Homo sapiens, UniProt Q9P1W9)
Sequence (Q9P1W9 whole entry): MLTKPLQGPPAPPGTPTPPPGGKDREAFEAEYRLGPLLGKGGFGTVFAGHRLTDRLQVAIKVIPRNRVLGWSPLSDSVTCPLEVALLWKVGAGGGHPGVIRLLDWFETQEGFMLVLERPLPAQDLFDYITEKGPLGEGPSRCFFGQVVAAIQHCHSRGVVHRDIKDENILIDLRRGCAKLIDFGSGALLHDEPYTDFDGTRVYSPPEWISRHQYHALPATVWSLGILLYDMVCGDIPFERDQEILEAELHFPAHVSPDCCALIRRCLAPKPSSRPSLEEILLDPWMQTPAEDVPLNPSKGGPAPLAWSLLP
Experiment: Inhibition of human recombinant Pim2 using RSRHSSYPAGT as substrate and 5 uM ATP by radiometric assay
Below: a set of entries, each annotated with reported log10 IC50.
readout type: log10 IC50 (log10 of the value in nM)

{"structure smiles": "Fc1cccc(Nc2nc3c(-c4nnc[nH]4)cccc3c3sccc23)c1", "readout type": "log10 IC50", "measurement": 0.70}
{"structure smiles": "c1ccc(Nc2nc3c(-c4nnc[nH]4)cccc3c3ccsc23)cc1", "readout type": "log10 IC50", "measurement": 1.15}
{"structure smiles": "Clc1ccccc1Nc1nc2c(-c3nnc[nH]3)cccc2c2sccc12", "readout type": "log10 IC50", "measurement": 0.30}
{"structure smiles": "Clc1ccc(Nc2nc3c(-c4nnc[nH]4)cccc3c3sccc23)cc1", "readout type": "log10 IC50", "measurement": 1.93}
{"structure smiles": "COc1cccc(Nc2nc3c(-c4nnc[nH]4)cccc3c3sccc23)c1", "readout type": "log10 IC50", "measurement": 1.45}
{"structure smiles": "c1ccc(Nc2nc3c(-c4nnc[nH]4)cccc3c3cscc23)cc1", "readout type": "log10 IC50", "measurement": 1.23}
{"structure smiles": "Fc1cc(F)cc(Nc2nc3c(-c4nnc[nH]4)cccc3c3sccc23)c1", "readout type": "log10 IC50", "measurement": 1.38}
{"structure smiles": "Fc1ccc(Nc2nc3c(-c4nnc[nH]4)cccc3c3sccc23)cc1", "readout type": "log10 IC50", "measurement": 0.85}
{"structure smiles": "FC(F)(F)Oc1ccc(Nc2nc3c(-c4nnc[nH]4)cccc3c3sccc23)c(Cl)c1", "readout type": "log10 IC50", "measurement": 1.88}
{"structure smiles": "CNC(=O)c1cccc2c1nc(Nc1ccccc1Cl)c1ccsc12", "readout type": "log10 IC50", "measurement": 1.45}
{"structure smiles": "c1cncc(Nc2nc3c(-c4nnc[nH]4)cccc3c3sccc23)c1", "readout type": "log10 IC50", "measurement": 1.34}
{"structure smiles": "c1cc(-c2nnc[nH]2)c2nc(N3CCOCC3)c3ccsc3c2c1", "readout type": "log10 IC50", "measurement": 1.00}
{"structure smiles": "Fc1ccc(Nc2nc3c(-c4nnc[nH]4)cccc3c3sccc23)cc1F", "readout type": "log10 IC50", "measurement": 1.18}
{"structure smiles": "Clc1ccccc1Nc1nc2c(-c3nnc[nH]3)cccc2n2cccc12", "readout type": "log10 IC50", "measurement": 1.61}
{"structure smiles": "NC(=O)c1ccc(Nc2nc3c(-c4nnc[nH]4)cccc3c3sccc23)cc1", "readout type": "log10 IC50", "measurement": 1.23}
{"structure smiles": "Oc1ccc(Nc2nc3c(-c4nnc[nH]4)cccc3c3sccc23)c(Cl)c1", "readout type": "log10 IC50", "measurement": 0.60}
{"structure smiles": "Fc1ccc(Nc2nc3c(-c4nnc[nH]4)cccc3c3sccc23)c(F)c1", "readout type": "log10 IC50", "measurement": 0.30}
{"structure smiles": "Clc1ccccc1Nc1nc2c(-c3nnc[nH]3)cccc2c2cscc12", "readout type": "log10 IC50", "measurement": 0.90}
{"structure smiles": "FC(F)(F)c1cccc(Nc2nc3c(-c4nnc[nH]4)cccc3c3sccc23)c1", "readout type": "log10 IC50", "measurement": 1.72}
{"structure smiles": "Fc1ccccc1Nc1nc2c(-c3nnc[nH]3)cccc2c2sccc12", "readout type": "log10 IC50", "measurement": 0.30}
{"structure smiles": "Clc1ccccc1Nc1nc2c(-c3nnc[nH]3)cccc2c2ccsc12", "readout type": "log10 IC50", "measurement": 0.78}
{"structure smiles": "c1cc(-c2nnc[nH]2)c2nc(Nc3ccncc3)c3ccsc3c2c1", "readout type": "log10 IC50", "measurement": 1.83}
{"structure smiles": "c1ccc(Nc2nc3c(-c4nnc[nH]4)cccc3n3cccc23)cc1", "readout type": "log10 IC50", "measurement": 1.48}
{"structure smiles": "CN(C)CCOc1ccc(Nc2nc3c(-c4nnc[nH]4)cccc3c3sccc23)cc1", "readout type": "log10 IC50", "measurement": 1.53}
{"structure smiles": "O=C(O)c1cccc2c1nc(Nc1ccccc1Cl)c1ccsc12", "readout type": "log10 IC50", "measurement": 2.08}
{"structure smiles": "c1ccc(CNc2nc3c(-c4nnc[nH]4)cccc3c3sccc23)cc1", "readout type": "log10 IC50", "measurement": 1.72}
{"structure smiles": "C#Cc1cccc(Nc2nc3c(-c4nnc[nH]4)cccc3c3sccc23)c1", "readout type": "log10 IC50", "measurement": 0.70}
{"structure smiles": "COc1cccc(Nc2nc3c(-c4nnc[nH]4)cccc3c3sccc23)c1Cl", "readout type": "log10 IC50", "measurement": 1.32}
{"structure smiles": "COc1ccccc1Nc1nc2c(-c3nnc[nH]3)cccc2c2sccc12", "readout type": "log10 IC50", "measurement": 1.69}
{"structure smiles": "N#Cc1cccc(Nc2nc3c(-c4nnc[nH]4)cccc3c3sccc23)c1", "readout type": "log10 IC50", "measurement": 1.08}
{"structure smiles": "Clc1cccc(Nc2nc3c(-c4nnc[nH]4)cccc3c3sccc23)c1", "readout type": "log10 IC50", "measurement": 0.78}
{"structure smiles": "NC(=O)c1cccc2c1nc(Nc1ccccc1Cl)c1ccsc12", "readout type": "log10 IC50", "measurement": 1.08}
{"structure smiles": "c1ccc(Nc2nc3c(-c4nnc[nH]4)cccc3c3sccc23)cc1", "readout type": "log10 IC50", "measurement": 1.18}
{"structure smiles": "Fc1ccccc1Nc1nc2c(-c3nnc[nH]3)cccc2n2cccc12", "readout type": "log10 IC50", "measurement": 1.30}
{"structure smiles": "Cc1cc2c(Nc3ccccc3F)nc3c(-c4nnc[nH]4)cccc3c2s1", "readout type": "log10 IC50", "measurement": 0.78}
{"structure smiles": "Clc1ccccc1Nc1nc2c(-c3nnc[nH]3)cccc2c2scnc12", "readout type": "log10 IC50", "measurement": 0.95}
{"structure smiles": "c1cc(-c2nnc[nH]2)c2nc(NC3CC3)c3ccsc3c2c1", "readout type": "log10 IC50", "measurement": 1.40}
{"structure smiles": "Fc1ccccc1Nc1nc2c(-c3nnc[nH]3)cccc2n2cncc12", "readout type": "log10 IC50", "measurement": 1.63}
{"structure smiles": "COc1ccc(Nc2nc3c(-c4nnc[nH]4)cccc3c3sccc23)cc1", "readout type": "log10 IC50", "measurement": 0.78}
{"structure smiles": "Fc1ccc(Nc2nc3c(-c4nnc[nH]4)cccc3c3sccc23)c(Cl)c1", "readout type": "log10 IC50", "measurement": 0.95}

###

Molecular target: Serine/threonine-protein kinase pim-1 (Homo sapiens, UniProt P11309)
Sequence (P11309 whole entry): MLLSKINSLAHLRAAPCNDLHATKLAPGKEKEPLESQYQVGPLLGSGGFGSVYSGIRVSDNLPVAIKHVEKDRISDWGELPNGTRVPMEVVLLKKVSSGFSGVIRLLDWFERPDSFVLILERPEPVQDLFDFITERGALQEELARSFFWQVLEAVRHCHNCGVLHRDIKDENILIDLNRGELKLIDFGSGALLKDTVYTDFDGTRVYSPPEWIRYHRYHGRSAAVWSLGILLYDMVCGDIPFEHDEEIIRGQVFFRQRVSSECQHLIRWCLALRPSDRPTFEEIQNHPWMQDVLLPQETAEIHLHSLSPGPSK
Experiment: Inhibition of human recombinant Pim1 using RSRHSSYPAGT as substrate and 30 uM ATP by radiometric assay
readout type: IC50

{"structure smiles": "Clc1ccc(Nc2nc3c(-c4nnc[nH]4)cccc3c3sccc23)cc1", "measurement": "14 nM"}
{"structure smiles": "COc1cccc(Nc2nc3c(-c4nnc[nH]4)cccc3c3sccc23)c1Cl", "measurement": "5 nM"}
{"structure smiles": "c1ccc(CNc2nc3c(-c4nnc[nH]4)cccc3c3sccc23)cc1", "measurement": "4 nM"}
{"structure smiles": "c1cncc(Nc2nc3c(-c4nnc[nH]4)cccc3c3sccc23)c1", "measurement": "17 nM"}
{"structure smiles": "c1ccc(Nc2nc3c(-c4nnc[nH]4)cccc3c3ccsc23)cc1", "measurement": "16 nM"}
{"structure smiles": "c1ccc(Nc2nc3c(-c4nnc[nH]4)cccc3c3sccc23)cc1", "measurement": "4 nM"}
{"structure smiles": "Fc1cccc(Nc2nc3c(-c4nnc[nH]4)cccc3c3sccc23)c1", "measurement": "3 nM"}
{"structure smiles": "c1cc(-c2nnc[nH]2)c2nc(NC3CC3)c3ccsc3c2c1", "measurement": "15 nM"}
{"structure smiles": "Clc1ccccc1Nc1nc2c(-c3nnc[nH]3)cccc2c2cscc12", "measurement": "7 nM"}
{"structure smiles": "Clc1ccccc1Nc1nc2c(-c3nnc[nH]3)cccc2n2cccc12", "measurement": "12 nM"}
{"structure smiles": "Fc1ccc(Nc2nc3c(-c4nnc[nH]4)cccc3c3sccc23)c(F)c1", "measurement": "2 nM"}
{"structure smiles": "c1ccc(Nc2nc3c(-c4nnc[nH]4)cccc3c3cscc23)cc1", "measurement": "27 nM"}

###

Target: Serine/threonine-protein kinase pim-1 (Homo sapiens, UniProt P11309)
Experiment: Inhibition of human recombinant Pim1 using RSRHSSYPAGT as substrate and 30 uM ATP by radiometric assay
pIC50: −log10 of the molar value.

{"structure smiles": "c1cc(-c2nnc[nH]2)c2nc(N3CCOCC3)c3ccsc3c2c1", "assayed system": "Serine/threonine-protein kinase pim-1 (Homo sapiens, UniProt P11309)", "pIC50": 7.46}
{"structure smiles": "Cc1cc2c(Nc3ccccc3F)nc3c(-c4nnc[nH]4)cccc3c2s1", "assayed system": "Serine/threonine-protein kinase pim-1 (Homo sapiens, UniProt P11309)", "pIC50": 7.82}
{"structure smiles": "COc1cccc(Nc2nc3c(-c4nnc[nH]4)cccc3c3sccc23)c1", "assayed system": "Serine/threonine-protein kinase pim-1 (Homo sapiens, UniProt P11309)", "pIC50": 7.96}
{"structure smiles": "N#Cc1cccc(Nc2nc3c(-c4nnc[nH]4)cccc3c3sccc23)c1", "assayed system": "Serine/threonine-protein kinase pim-1 (Homo sapiens, UniProt P11309)", "pIC50": 8.00}
{"structure smiles": "NC(=O)c1cccc2c1nc(Nc1ccccc1Cl)c1ccsc12", "assayed system": "Serine/threonine-protein kinase pim-1 (Homo sapiens, UniProt P11309)", "pIC50": 8.30}
{"structure smiles": "O=C(O)c1cccc2c1nc(Nc1ccccc1Cl)c1ccsc12", "assayed system": "Serine/threonine-protein kinase pim-1 (Homo sapiens, UniProt P11309)", "pIC50": 7.16}

Source: ChEMBL document CHEMBL2016532
